assay remarks: Stability of peptides in human liver microsomes
Assay type: in vitro ADME
protocol conditions: human, microsomes
Where a SMILES comes first, the peptide text is derived from it. [ ]: non-standard residue; d: D form. ξ: configuration not given here. Arg(NO2) = N=C(NCCC[C@H](N)C(=O)O)N[N+](=O)[O-]; ξαMePhe(2,6-F2) = CC(N)(Cc1c(F)cccc1F)C(=O)O; ξαMePhe(2-F) = CC(N)(Cc1ccccc1F)C(=O)O; Nle = CCCC[C@H](N)C(=O)O; Aib = CC(C)(N)C(=O)O

compound: CCCC[C@H](NC(=O)C(C)(Cc1c(F)cccc1F)NC(=O)[C@H](CCC(N)=O)NC(=O)[C@@H](NC(=O)[C@H](CCC(=O)O)NC(=O)C(C)(C)NC(=O)[C@@H](NC(=O)C(C)(C)N)C(C)C)[C@@H](C)CC)C(=O)N[C@@H](Cc1c[nH]cn1)C(=O)N[C@@H](CCC(N)=O)C(=O)NC(C)(C)C(=O)NC(C)(C)C(=O)N[C@@H](CCCNC(=N)N[N+](=O)[O-])C(=O)NC(C)(Cc1ccccc1F)C(N)=O (stereo partly shown) [Seq. ID. 590] (H-[Aib]V[Aib]EIQ[ξαMePhe(2,6-F2)][Nle]HQ[Aib][Aib][Arg(NO2)][ξαMePhe(2-F)]-NH2)
half-life (t1/2) in liver microsomes: (5) h
